biological target: T1, recombinant human ROR1 extracellular domain (human, UniProt Q01973 30-406); test: ELISA with prolonged wash, soluble Fab on coated huROR1-ECD
T1 construct: biotinylated for the filter lifts; also called huROR1-ECD; human ROR1-ECD
T1 sequence (Q01973 30-406 limits assumed): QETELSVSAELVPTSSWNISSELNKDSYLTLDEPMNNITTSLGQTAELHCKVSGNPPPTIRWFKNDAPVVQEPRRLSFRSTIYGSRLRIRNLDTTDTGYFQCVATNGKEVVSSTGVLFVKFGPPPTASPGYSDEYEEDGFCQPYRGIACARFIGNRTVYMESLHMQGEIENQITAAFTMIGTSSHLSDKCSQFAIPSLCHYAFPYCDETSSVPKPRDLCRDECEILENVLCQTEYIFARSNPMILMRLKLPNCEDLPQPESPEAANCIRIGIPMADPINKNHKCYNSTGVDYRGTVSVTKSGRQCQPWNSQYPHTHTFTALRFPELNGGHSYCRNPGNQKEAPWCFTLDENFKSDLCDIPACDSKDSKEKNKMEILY

Binder	Kd [nM]
Ab1 Fab variant H1 T32A + L1 A25P + L2 T69H (Fab, V domains shown, Fab) VH: QVQLQESGPGLVKPSQTLSLTCTVSGYAFAAYNIHWVRQAPGQGLEWMGSFDPYDGGSSYNQKFKDRLTISKDTSKNQVVLTMTNMDPVDTATYYCARGWYYFDYWGHGTLVTVSS VL: DIVMTQTPLSLPVTPGEPASISCRPSKSISKYLAWYQQKPGQAPRLLIYSGSHLQSGIPPRFSGSGYGTDFTLTINNIESEDAAYYFCQQHDESPYTFGEGTKVEIK	2.3
